Every entry's value here was drawn from patent EP4722219A1.

molecular target: ERα (Homo sapiens); assay: ERα degradation in T-47D cells (Western blot); type: cell-based; settings: 10nM, 4 hours
Sequence (P03372 whole entry): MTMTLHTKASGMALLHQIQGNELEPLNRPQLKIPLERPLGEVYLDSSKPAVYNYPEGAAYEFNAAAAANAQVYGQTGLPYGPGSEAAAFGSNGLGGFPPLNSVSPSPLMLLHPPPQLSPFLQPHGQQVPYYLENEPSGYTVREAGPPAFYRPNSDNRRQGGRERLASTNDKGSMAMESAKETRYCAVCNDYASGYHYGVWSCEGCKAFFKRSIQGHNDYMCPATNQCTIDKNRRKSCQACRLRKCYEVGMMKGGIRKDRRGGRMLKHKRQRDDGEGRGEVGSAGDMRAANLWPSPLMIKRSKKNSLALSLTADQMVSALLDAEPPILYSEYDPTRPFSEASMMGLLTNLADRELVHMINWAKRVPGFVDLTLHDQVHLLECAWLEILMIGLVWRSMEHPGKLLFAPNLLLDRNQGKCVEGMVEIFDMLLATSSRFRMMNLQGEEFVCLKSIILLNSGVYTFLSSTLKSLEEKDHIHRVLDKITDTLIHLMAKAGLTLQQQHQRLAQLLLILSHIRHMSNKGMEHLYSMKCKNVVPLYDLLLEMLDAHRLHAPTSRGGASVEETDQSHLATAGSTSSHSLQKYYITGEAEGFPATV
Provide the reported Degradation rate of ERα in T-47D cells (%) of each item.
// return numeric value only (unit: %, not printed)

Requested read-out: Degradation rate of ERα in T-47D cells (%). Entry: COc1cc2c(cc1C(=O)N[C@H]1CCC(=O)NC1=O)OCC[C@H]1CN(CC3CCC(OC4CCN(c5ccc([C@@H]6c7ccc(O)cc7CC[C@@H]6c6ccccc6)cc5)CC4)CC3)CCN21 (some centres unmarked)
55

Requested read-out: Degradation rate of ERα in T-47D cells (%). Entry: O=C1CCC(Nc2ccc3c(c2)OC[C@@H]2CN(C4CC5(CCN(c6ccc([C@@H]7c8ccc(O)cc8CC[C@@H]7c7ccccc7)cc6)CC5)C4)CCN32)C(=O)N1 (some centres unmarked)
21

Requested read-out: Degradation rate of ERα in T-47D cells (%). Entry: O=C1CC[C@H](NC(=O)c2ccc3c(c2F)OCC32CCN(C3CCC4(CC3)CCN(c3ccc([C@@H]5c6ccc(O)cc6CC[C@@H]5c5ccccc5)cc3)CC4)CC2)C(=O)N1
-3

Requested read-out: Degradation rate of ERα in T-47D cells (%). Entry: Cn1c(=O)n(C2CCC(=O)NC2=O)c2cc3c(cc21)C1(CCN(CC2CCC4(CC2)CCN(c2ccc([C@@H]5c6ccc(O)cc6CC[C@@H]5c5ccccc5)cc2)CC4)CC1)CO3 (some centres unmarked)
52

Requested read-out: Degradation rate of ERα in T-47D cells (%). Entry: O=C1CCC(Nc2ccc3c(c2)OCC2(CCN(C[C@H]4CC[C@@H](OC5CCN(c6ccc([C@@H]7c8ccc(O)cc8CC[C@@H]7c7ccccc7)cc6)CC5)CC4)CC2)C3)C(=O)N1 (some centres unmarked)
21

* * *

biological target: AR protein (Homo sapiens, UniProt P10275); construct: host or cells: VCaP; test: AR protein degradation in VCaP cells (Western blot); format: cell-based; settings: 5 nM, 8h
Sequence (P10275 whole entry): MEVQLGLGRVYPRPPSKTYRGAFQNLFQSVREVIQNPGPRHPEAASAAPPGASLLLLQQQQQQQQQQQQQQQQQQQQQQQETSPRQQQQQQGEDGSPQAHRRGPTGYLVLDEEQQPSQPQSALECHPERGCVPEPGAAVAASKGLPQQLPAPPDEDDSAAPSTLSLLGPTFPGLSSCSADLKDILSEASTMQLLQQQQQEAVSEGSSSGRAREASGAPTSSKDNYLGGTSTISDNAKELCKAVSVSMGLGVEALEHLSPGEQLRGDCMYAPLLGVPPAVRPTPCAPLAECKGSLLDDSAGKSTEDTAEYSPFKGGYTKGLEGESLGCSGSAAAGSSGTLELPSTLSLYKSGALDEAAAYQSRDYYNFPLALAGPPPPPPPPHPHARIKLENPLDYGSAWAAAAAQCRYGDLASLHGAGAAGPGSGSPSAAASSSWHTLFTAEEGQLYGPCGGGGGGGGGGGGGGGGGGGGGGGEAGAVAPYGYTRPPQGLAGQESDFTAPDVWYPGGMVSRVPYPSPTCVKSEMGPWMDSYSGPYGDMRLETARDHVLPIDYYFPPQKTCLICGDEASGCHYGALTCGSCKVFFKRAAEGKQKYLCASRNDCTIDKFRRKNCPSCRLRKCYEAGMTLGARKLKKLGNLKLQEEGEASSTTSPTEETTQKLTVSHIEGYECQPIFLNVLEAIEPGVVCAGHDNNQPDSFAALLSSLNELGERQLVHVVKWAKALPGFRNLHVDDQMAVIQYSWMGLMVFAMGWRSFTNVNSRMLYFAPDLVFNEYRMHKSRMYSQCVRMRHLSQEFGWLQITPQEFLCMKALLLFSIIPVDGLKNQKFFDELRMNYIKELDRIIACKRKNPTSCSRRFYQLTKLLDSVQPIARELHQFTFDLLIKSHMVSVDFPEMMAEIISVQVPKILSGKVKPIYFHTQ
Provide the reported Degradation rate of AR protein in VCaP cells of each item.
// return numeric value only (unit: %, not printed)

Requested read-out: Degradation rate of AR protein in VCaP cells. Entry: N#Cc1ccc(O[C@H]2CC[C@H](NC(=O)c3ccc(N4CCC(N5CC6(CCC7(CC6)COc6c7ccc7c6CN(C6CCC(=O)NC6=O)C7=O)C5)CC4)nn3)CC2)cc1Cl (relative stereo) [A-P-1]
82

Requested read-out: Degradation rate of AR protein in VCaP cells. Entry: C[C@H]1CC2(CCN(c3ccc(C(=O)N4CCC(CN5CCN6c7ccc(C(=O)N[C@H]8CCC(=O)NC8=O)cc7OC[C@@H]6C5)CC4)cc3)CC2)CN1c1ccc(C#N)c(Cl)c1 [A-P-69]
18

Requested read-out: Degradation rate of AR protein in VCaP cells. Entry: COc1cc(O[C@H]2C(C)(C)[C@H](NC(=O)c3ccc(N4CCC(C)(CN5CCC6(CCc7cc(C(=O)N[C@H]8CCC(=O)NC8=O)c(F)cc7O6)CC5)CC4)nn3)C2(C)C)ccc1C#N [A-P-48]
-1

Requested read-out: Degradation rate of AR protein in VCaP cells. Entry: COc1cc(O[C@H]2C(C)(C)[C@H](NC(=O)c3ccc(N4CCC(C)(CN5CCC6(CCc7cc(C(=O)N[C@H]8CCC(=O)NC8=O)c(F)cc7O6)CC5)CC4)cn3)C2(C)C)ccc1C#N [A-P-43]
32

Requested read-out: Degradation rate of AR protein in VCaP cells. Entry: COc1cc(O[C@H]2C(C)(C)[C@H](NC(=O)c3ccc(N4CCC(CN5CC6(CCC7(CC6)COc6c7ccc7c6CN(C6CCC(=O)NC6=O)C7=O)C5)CC4)cc3)C2(C)C)ccc1C#N (relative stereo) [A-P-3]
87

Requested read-out: Degradation rate of AR protein in VCaP cells. Entry: COc1cc(O[C@H]2C(C)(C)[C@H](NC(=O)c3ccc(N4CCC5(CC4)CC(N4CCC6(CC4)COc4cc7c(cc46)n(C)c(=O)n7C4CCC(=O)NC4=O)C5)cc3)C2(C)C)ccc1C#N (relative stereo) [A-P-21]
71

Requested read-out: Degradation rate of AR protein in VCaP cells. Entry: COc1cc(O[C@H]2C(C)(C)[C@H](NC(=O)c3ccc(N4CCC(CN5CCN6c7ccc(C(=O)N[C@H]8CCC(=O)NC8=O)cc7OC[C@@H]6C5)CC4)cc3)C2(C)C)ccc1C#N [A-P-67]
70

Requested read-out: Degradation rate of AR protein in VCaP cells. Entry: COc1cc(O[C@H]2C(C)(C)[C@H](NC(=O)c3ccc(N4CCC5(CC4)CC(N4CCC6(CCc7cc(C(=O)N[C@H]8CCC(=O)NC8=O)c(F)cc7O6)CC4)C5)cc3)C2(C)C)ccc1C#N [A-P-37]
49

Requested read-out: Degradation rate of AR protein in VCaP cells. Entry: N#Cc1ccc(O[C@H]2CC[C@H](NC(=O)c3ccc(N4CCC(N5CCC6(CC5)CCC5(CC6)COc6c5ccc5c6CN(C6CCC(=O)NC6=O)C5=O)CC4)nn3)CC2)cc1Cl (relative stereo) [A-P-7]
89

Requested read-out: Degradation rate of AR protein in VCaP cells. Entry: COc1cc(O[C@H]2C(C)(C)[C@H](NC(=O)c3ccc(N4CCC(F)(CN5CCC6(CCc7cc(C(=O)N[C@H]8CCC(=O)NC8=O)c(F)cc7O6)CC5)CC4)cc3)C2(C)C)ccc1C#N [A-P-52]
14

Requested read-out: Degradation rate of AR protein in VCaP cells. Entry: COc1cc(O[C@H]2C(C)(C)[C@H](NC(=O)c3ccc(N4CCC(C)(CN5CCC6(CCc7cc(C(=O)N[C@H]8CCC(=O)NC8=O)c(F)cc7O6)CC5)CC4)nc3)C2(C)C)ccc1C#N [A-P-49]
45

Requested read-out: Degradation rate of AR protein in VCaP cells. Entry: COc1cc(O[C@H]2C(C)(C)[C@H](NC(=O)c3ccc(N4CCC(CN5CCN6c7ccc(N[C@H]8CCC(=O)NC8=O)cc7OC[C@@H]6C5)CC4)cc3)C2(C)C)ccc1C#N [A-P-100]
21

Requested read-out: Degradation rate of AR protein in VCaP cells. Entry: COc1cc(O[C@H]2C(C)(C)[C@H](NC(=O)c3ccc(N4CCC(F)(CN5CCC6(CC5)COc5c6ccc(C(=O)N[C@H]6CCC(=O)NC6=O)c5F)CC4)cc3)C2(C)C)ccc1C#N [A-P-84]
-17

Requested read-out: Degradation rate of AR protein in VCaP cells. Entry: COc1cc(O[C@H]2C(C)(C)[C@H](NC(=O)c3ccc(N4CCC(C)(CN5CCC6(CCc7cc(F)c(C(=O)N[C@H]8CCC(=O)NC8=O)cc7O6)CC5)CC4)cc3)C2(C)C)ccc1C#N [A-P-38]
-5

Requested read-out: Degradation rate of AR protein in VCaP cells. Entry: COc1cc(O[C@H]2C(C)(C)[C@H](NC(=O)c3ccc(N4CCC5(CC4)CC(N4CCC6(CC4)COc4cc7c(cc46)n(C)c(=O)n7C4CCC(=O)NC4=O)C5)nn3)C2(C)C)ccc1C#N (relative stereo) [A-P-14]
82

Requested read-out: Degradation rate of AR protein in VCaP cells. Entry: COc1cc(O[C@H]2C(C)(C)[C@H](NC(=O)c3ccc(N4CCC(CN5CCC6(CCc7cc(C(=O)N[C@H]8CCC(=O)NC8=O)c(F)cc7O6)CC5)CC4)nc3)C2(C)C)ccc1C#N [A-P-33]
84

Requested read-out: Degradation rate of AR protein in VCaP cells. Entry: COc1cc(O[C@H]2C(C)(C)[C@H](NC(=O)c3ccc(N4CCC(CN5CCC6(CCc7cc(C(=O)N[C@H]8CCC(=O)NC8=O)c(F)cc7O6)CC5)CC4)nn3)C2(C)C)ccc1C#N [A-P-34]
47

Requested read-out: Degradation rate of AR protein in VCaP cells. Entry: Cn1c(=O)n(C2CCC(=O)NC2=O)c2cc3c(cc21)C1(CCN(C2CC4(CCN(c5ccc(C(=O)N[C@H]6CC[C@H](Oc7ccc(C#N)c(Cl)c7)CC6)nn5)CC4)C2)CC1)CO3 (relative stereo) [A-P-12]
88

Requested read-out: Degradation rate of AR protein in VCaP cells. Entry: C[C@H]1CC2(CCN(c3ccc(C(=O)N4CCC(CN5CCN6c7ccc(C(=O)N[C@H]8CCC(=O)NC8=O)cc7OC[C@H]6C5)CC4)cc3)CC2)CN1c1ccc(C#N)c(Cl)c1 [A-P-68]
33
